Each recorded value in this set is attributed to paper PMC12040169.

# assay.procedure: in vitro
# test.parameters: human, hela cells, % viability
measurement.type: viability at 28.5 h, 10 µM

Any idea what its viability at 28.5 h, 10 µM is? The molecule is CCCc1ccc(S(=O)(=O)Nc2nc(-c3cccc([N+](=O)[O-])c3)cs2)cc1
88.1%

Any idea what its viability at 28.5 h, 10 µM is? The molecule is Cc1cc(Cl)ccc1CNC(=O)c1ccc2[nH]ccc2c1
81.7%

Any idea what its viability at 28.5 h, 10 µM is? The molecule is NCC(=O)Nc1ccc(Br)cc1C(=O)c1ccccc1Cl [CBK264692B]
90.5%

====

# assay.procedure: in vitro
# test.parameters: human, hela cells, % viability
measurement.type: viability at 28.5 h, 10 µM (%)
Kindly provide the numeric value in % only, without the unit symbol.

Any idea what its viability at 28.5 h, 10 µM is? The molecule is Cc1ccc(S(N)(=O)=O)cc1NC(=O)Cc1ccccc1
86.7

Any idea what its viability at 28.5 h, 10 µM is? The molecule is CCOc1ccc(-c2nn(-c3ccccc3)cc2/C=C2\SC(=S)N(CC(=O)O)C2=O)cc1F
105

Any idea what its viability at 28.5 h, 10 µM is? The molecule is CC(=O)NC(c1nccs1)C1CCCN(C(=O)C2CCCC2)C1 (centres unmarked)
101

Any idea what its viability at 28.5 h, 10 µM is? The molecule is CC1=C[C@@H](CNC(=O)c2ccccc2)[C@H](C(C)C)C[C@H]1CC(=O)O
102

Any idea what its viability at 28.5 h, 10 µM is? The molecule is COc1ccc(-c2ccc(=O)n3c2[C@@H]2C[C@@H](CN(C(=O)NC4CCCCC4)C2)C3)cc1
82.1

====

For each record, write down the corresponding viability at 28.5 h, 10 µM.
# assay.procedure: in vitro
# test.parameters: human, hela cells, % viability
Kindly provide the numeric value in % only, without the unit symbol.

Any idea what its viability at 28.5 h, 10 µM is? The compound is CCOc1cc(OCC)cc(C(=O)N2CCCC3(CC(=O)c4ccc(C)cc4O3)C2)c1 (stereo not drawn)
93.9

Any idea what its viability at 28.5 h, 10 µM is? The compound is COc1ccc(C2(C(=O)NCCc3c[nH]cn3)CC2)cc1
97.8

Any idea what its viability at 28.5 h, 10 µM is? The compound is COc1ccc(CCN2CNc3c(c(=O)n(C)c(=O)n3C)C2)cc1OC
86

====

For each record, write down the corresponding viability at 28.5 h, 10 µM.
# assay.procedure: in vitro
# test.parameters: human, hela cells, % viability
Kindly provide the numeric value in % only, without the unit symbol.

Any idea what its viability at 28.5 h, 10 µM is? The molecule is CN(CC1(C)COC1)C(=O)CCc1nc2ccccc2[nH]1
88.8

Any idea what its viability at 28.5 h, 10 µM is? The molecule is CC(c1nc(N)nc(N(C)C)n1)N(C)CCOc1ccccc1F (stereo not drawn)
88.2

Any idea what its viability at 28.5 h, 10 µM is? The molecule is O=S(=O)(Nc1ccc(C(O)(C(F)(F)F)C(F)(F)F)cc1)c1ccc(-c2ccon2)s1
91.2

====

# assay.procedure: in vitro
# test.parameters: human, hela cells, % viability
measurement.type: viability at 28.5 h, 10 µM (%)
Kindly provide the numeric value in % only, without the unit symbol.

Any idea what its viability at 28.5 h, 10 µM is? The compound is CC(=O)c1ccc(-c2nccnc2NCC(O)COc2ccccc2)s1 (stereo not drawn)
107

Any idea what its viability at 28.5 h, 10 µM is? The compound is COc1cc(C=O)ccc1OC(=O)c1cn(-c2ccccc2)nc1-c1cccnc1
89.6

Any idea what its viability at 28.5 h, 10 µM is? The compound is Cc1nn(C)cc1CN1CCCC(c2cc3ccccc3cn2)C1 (stereo not drawn)
108

Any idea what its viability at 28.5 h, 10 µM is? The compound is Fc1ccc(COc2ccc3ccccc3c2CNc2nn[nH]n2)cc1
86.9

Any idea what its viability at 28.5 h, 10 µM is? The compound is Cc1ccc(C(C)(C)CC(C)NCc2cccc(C(F)(F)F)c2)o1 (stereo not drawn)
95

Any idea what its viability at 28.5 h, 10 µM is? The compound is Cc1cnc(CNS(=O)(=O)c2c(C)noc2C)cn1
104

Any idea what its viability at 28.5 h, 10 µM is? The compound is Cc1ccc(SCc2ccc(C(=O)NCCN3CCOCC3)cc2)cc1
98.7

Any idea what its viability at 28.5 h, 10 µM is? The compound is Cc1cccn2c(=O)cc(CN3CCC(c4ccn[nH]4)CC3)nc12
93.2

Any idea what its viability at 28.5 h, 10 µM is? The compound is COC(=O)c1sccc1NS(=O)(=O)c1ccc2ccccc2c1
103

Any idea what its viability at 28.5 h, 10 µM is? The compound is O=C(O)CC1SC(=O)N(c2ccccc2)C1=O (stereo not drawn)
78.8

Any idea what its viability at 28.5 h, 10 µM is? The compound is Cc1ccc(-c2noc(C(C)NC(=O)C3(Cn4ccnc4)CC3)n2)cc1 (stereo not drawn)
113

Any idea what its viability at 28.5 h, 10 µM is? The compound is O=C(c1ccc(NCCCCO)nc1)N1CCC(N2CCOCC2)CC1
96

Any idea what its viability at 28.5 h, 10 µM is? The compound is O=C(NCc1ccccc1)C(=O)NNC(=O)C12CC3CC(CC(C3)C1)C2
94.9

Any idea what its viability at 28.5 h, 10 µM is? The compound is O=C(CSc1nnc(CN2CCOCC2)n1-c1ccc(Cl)cc1)N1c2ccccc2SC2C=CC=CC21 (stereo not drawn)
91.3

Any idea what its viability at 28.5 h, 10 µM is? The compound is O=C(c1ccccc1)N1CCN(c2ccc(-n3cccn3)nn2)CC1
92.2

Any idea what its viability at 28.5 h, 10 µM is? The compound is COc1cccc(NC(=O)N2CCN3C(=O)[C@H](CC4CCCCC4)NC(=O)[C@H]3C2)c1
117

Any idea what its viability at 28.5 h, 10 µM is? The compound is CCOc1ccc(Oc2nc(N(C)C)nc(N3CCOCC3)n2)nn1
104

Any idea what its viability at 28.5 h, 10 µM is? The compound is Cc1c(C(=O)N2CCC(n3cncn3)CC2)sc2cccc(F)c12
103

Any idea what its viability at 28.5 h, 10 µM is? The compound is O=C(c1ccc(F)cc1)C1CCN(CC(O)COc2cccc3c2CCCC3)CC1 (stereo not drawn)
101

Any idea what its viability at 28.5 h, 10 µM is? The compound is Cc1nc2ccc(C(=O)NCCN3CCc4ccccc43)cc2[nH]1
94.2

Any idea what its viability at 28.5 h, 10 µM is? The compound is C[C@H](Nc1nc(-c2cccc3ncccc23)cnc1N)c1ccccc1
97.6

Any idea what its viability at 28.5 h, 10 µM is? The compound is CC(C)N(Cc1nc(-c2ccccc2)no1)C(=O)Nc1cccc(Cl)c1
93.5

Any idea what its viability at 28.5 h, 10 µM is? The compound is CC(=O)NC(CSc1cc(C)nc2ccc(F)cc12)C(=O)O (stereo not drawn)
91.7

Any idea what its viability at 28.5 h, 10 µM is? The compound is CC(C)Oc1ccc(C(=O)C2=C(O)C(=O)N(Cc3cccnc3)C2c2ccncc2)cc1 (stereo not drawn)
90

====

# assay.procedure: in vitro
# test.parameters: human, hela cells, % viability
measurement.type: viability at 28.5 h, 10 µM (%)
Kindly provide the numeric value in % only, without the unit symbol.

Any idea what its viability at 28.5 h, 10 µM is? The molecule is C[C@H]1CN2CCCC2CN1Cc1ccccc1F (some centres unmarked)
96.5

Any idea what its viability at 28.5 h, 10 µM is? The molecule is O=C(NCC(O)c1ccc(O)cc1)c1cnc(-c2ccc(Cl)cc2)c(-c2cccnc2)c1 (centres unmarked)
92.5

Any idea what its viability at 28.5 h, 10 µM is? The molecule is O=C(NS(=O)(=O)c1cccc(-c2nnco2)c1)C1C2C3CCC(C3)C12 (centres unmarked)
89

Any idea what its viability at 28.5 h, 10 µM is? The molecule is C=CCn1c(C)c(CN2CCc3c(nc(C)[nH]c3=O)C2)c2ccccc21
88.6

Any idea what its viability at 28.5 h, 10 µM is? The molecule is Cn1cc(C(=O)NCC(c2ccc(F)cc2)N2CCCC2)ccc1=O (centres unmarked)
87.4

Any idea what its viability at 28.5 h, 10 µM is? The molecule is COc1cc(CNc2cc(-c3ccccc3N(C)C)ncn2)cc(OC)c1OC
93.1

Any idea what its viability at 28.5 h, 10 µM is? The molecule is CC(C)NCC(O)c1c2c(cc3c1CCC3)CCC2 (centres unmarked) [CBK012972F]
108

Any idea what its viability at 28.5 h, 10 µM is? The molecule is O=C(c1ccc2[nH]nnc2c1)N1CCc2ccccc21
102

Any idea what its viability at 28.5 h, 10 µM is? The molecule is O=C(C1CCCC1)N1CCCC1c1nnc(-c2ccsc2)o1 (centres unmarked)
102

Any idea what its viability at 28.5 h, 10 µM is? The molecule is O=C(Nc1nc(-c2ccccc2)ns1)c1ccncc1
81.6

Any idea what its viability at 28.5 h, 10 µM is? The molecule is COc1ccccc1-c1cn2ccnc2c(NCc2ccccc2)n1
92.7

Any idea what its viability at 28.5 h, 10 µM is? The molecule is Cn1ccc(N2CCCC(NC(=O)c3scnc3C(C)(C)C)C2=O)n1 (centres unmarked)
94.9

Any idea what its viability at 28.5 h, 10 µM is? The molecule is O=C(c1cccnc1)C1CCN(C(=O)CC2CC3CCC2C3)CC1 (centres unmarked)
95.1

Any idea what its viability at 28.5 h, 10 µM is? The molecule is O=C(O)c1ccc2c(c1)C(=O)N(c1ccc(-c3ccc(N4C(=O)c5ccc(C(=O)O)cc5C4=O)cc3)cc1)C2=O
99.3
